Measured % blocking of Gal3-TREM2 binding, listed per entry.
target: T1, human Galectin-3 (Gal3), full-length recombinant (human, UniProt P17931 2-250); assay: blocking ELISA, Gal3 coated, TREM2-His
T1 construct: treated here as one molecule; also called hGAL3; hGal3
T1 sequence (P17931 2-250 limits assumed): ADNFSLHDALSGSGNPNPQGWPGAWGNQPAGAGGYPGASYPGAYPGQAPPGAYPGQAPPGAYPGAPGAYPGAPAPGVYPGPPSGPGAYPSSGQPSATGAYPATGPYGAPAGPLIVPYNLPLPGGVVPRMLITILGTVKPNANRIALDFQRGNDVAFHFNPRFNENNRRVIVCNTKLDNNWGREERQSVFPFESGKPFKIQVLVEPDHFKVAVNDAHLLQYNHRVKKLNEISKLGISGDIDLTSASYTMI

{"binder": "F846TC.16B5 (antibody, human IgG4 S228P, kappa, V domains shown, also called 846T.16B5) VH: QIQLVQSGPELKKPGETVKISCKASGYTFTNYGMNWVKQAPGKGLKWMGWINTYTGEPAYADDFKGRFAFSLETSASTAYLQINNLKNEDMATYFCARWGGYDGDYYAMDYWGQGTSVTVSS VL: NIMMTQSPSSLAVSAGEKVTMSCKSSQSVLYSSNQKNYLAWYQQKPGQSPKLLIYWASTRESGVPDRFTGSGSGTDFTLTISSVQAEDLAVYYCHQYLSSLTFGAGTKLELKR", "experimental-endpoint": "% blocking of Gal3-TREM2 binding", "result": "> 90%"}

Incoming: For the binder F846C.2H3 (antibody, human IgG4 S228P, kappa, V domains shown, also called 846.2H3) VH: QIQLVQSGPELKKPGETVKISCKASGYTFTNYGMNWVKQAPGKGLKWMGWINTYTGEPSYADDFKGRFAFSLETSASTAYLQINNLKNEDMATYFCARWGGYDGDYYAMDYWGQGTSVTVSS VL: NIMMTQSPSSLAVSAGEKVTMSCKSSQSVLYSSNQKNYLAWYQQKPGQSPKLLIYWASTRESGVPDRFTGSGSGTDFTLTISSVQPEDLAVYYCHQYLSSLTFGAGTKLELKR , give its reported % blocking of Gal3-TREM2 binding.
Outgoing: > 90%
